test system: 227483-062-R1-J1-PDC complex spheroids with HUVEC/MSC, viability; assay: Anticancer human tumor 227483-062-R1-J1-PDC patient-derived pancreatic carcinoma cell line growth inhibition [CLK]; details: second compound 0.316 µM; first compound 10 µM; active = viability on the fitted dose curve at most 10% of control; inactive = the rest
The reply should name one outcome from active, inactive

compound	classification
O=C(c1cc(Cc2n[nH]c(=O)c3ccccc23)ccc1F)N1CCN(C(=O)C2CC2)CC1 + CN1CCN(c2cc(C(=O)Nc3cc4cc(-c5cnn(C)c5)ccc4cn3)ccn2)CC1	active

Call for entry CC(CO)NC(=O)c1cc(-c2ccc(Cl)cc2)nn(-c2cnn(C)c2)c1=O (centres undefined) + CN1CCN(c2cc(C(=O)Nc3cc4cc(-c5cnn(C)c5)ccc4cn3)ccn2)CC1 :
active

Call for entry CC1(C)CCC(CN2CCN(c3ccc(C(=O)NS(=O)(=O)c4ccc(NCC5CCOCC5)c([N+](=O)[O-])c4)c(Oc4cnc5[nH]ccc5c4)c3)CC2)=C(c2ccc(Cl)cc2)C1 + CN1CCN(c2cc(C(=O)Nc3cc4cc(-c5cnn(C)c5)ccc4cn3)ccn2)CC1 :
active

Call for entry CC1(C)CCC(CN2CCN(c3ccc(C(=O)NS(=O)(=O)c4ccc(NCC5CCOCC5)c([N+](=O)[O-])c4)c(Oc4cnc5[nH]ccc5c4)c3)CC2)=C(c2ccc(Cl)cc2)C1 + CNC(=O)c1ccc(Nc2nc(OC3CCCC3)c3c(-c4ccc5nc(C)oc5c4)c[nH]c3n2)c(OC)c1 :
active

Call for entry CC(=O)O[C@H]1C(=O)[C@@]2(C)[C@H]([C@H](OC(=O)c3ccccc3)[C@]3(O)C[C@H](OC(=O)[C@H](O)[C@@H](NC(=O)c4ccccc4)c4ccccc4)C(C)=C1C3(C)C)[C@]1(OC(C)=O)CO[C@@H]1C[C@@H]2O + CNC(=O)c1ccc(Nc2nc(OC3CCCC3)c3c(-c4ccc5nc(C)oc5c4)c[nH]c3n2)c(OC)c1 :
inactive

Call for entry Nc1ccn(C2OC(CO)C(O)C2(F)F)c(=O)n1 (centres undefined) + CN1CCN(c2cc(C(=O)Nc3cc4cc(-c5cnn(C)c5)ccc4cn3)ccn2)CC1 :
active

Call for entry C=CC(=O)N1CCN(c2nc(=O)n(-c3c(C)ccnc3C(C)C)c3nc(-c4c(O)cccc4F)c(F)cc23)C(C)C1 (centres undefined) + CN1CCN(c2cc(C(=O)Nc3cc4cc(-c5cnn(C)c5)ccc4cn3)ccn2)CC1 :
active

Call for entry COc1cccc2c1C(=O)c1c(O)c3c(c(O)c1C2=O)CC(O)(C(=O)CO)CC3OC1CC(N)C(O)C(C)O1 (centres undefined) + CNC(=O)c1ccc(Nc2nc(OC3CCCC3)c3c(-c4ccc5nc(C)oc5c4)c[nH]c3n2)c(OC)c1 :
active

Call for entry COc1cccc2c1C(=O)c1c(O)c3c(c(O)c1C2=O)CC(O)(C(=O)CO)CC3OC1CC(N)C(O)C(C)O1 (centres undefined) + CN1CCN(c2cc(C(=O)Nc3cc4cc(-c5cnn(C)c5)ccc4cn3)ccn2)CC1 :
active

Call for entry CC1COCCN1c1cc(C2(S(C)(=N)=O)CC2)nc(-c2ccnc3[nH]ccc23)n1 (centres undefined) + CNC(=O)c1ccc(Nc2nc(OC3CCCC3)c3c(-c4ccc5nc(C)oc5c4)c[nH]c3n2)c(OC)c1 :
inactive

Call for entry CC(Nc1ccc2c(c1)OCCn1cc(N3C(=O)OCC3C(F)F)nc1-2)C(N)=O (centres undefined) + CN1CCN(c2cc(C(=O)Nc3cc4cc(-c5cnn(C)c5)ccc4cn3)ccn2)CC1 :
active

Call for entry C#Cc1c(F)ccc2cc(O)cc(-c3ncc4c(N5CC6CCC(C5)N6)nc(OCC56CCCN5CC(F)C6)nc4c3F)c12 (centres undefined) + CN1CCN(c2cc(C(=O)Nc3cc4cc(-c5cnn(C)c5)ccc4cn3)ccn2)CC1 :
active

Call for entry C=CC(=O)N1CCN(c2nc(=O)n(-c3c(C)ccnc3C(C)C)c3nc(-c4c(O)cccc4F)c(F)cc23)C(C)C1 (centres undefined) + CNC(=O)c1ccc(Nc2nc(OC3CCCC3)c3c(-c4ccc5nc(C)oc5c4)c[nH]c3n2)c(OC)c1 :
inactive

* * *

test system: 227483-062-R1-J1-PDC complex spheroids with HUVEC/MSC, viability; assay: Anticancer human tumor 227483-062-R1-J1-PDC cell line growth inhibition [CLK]; conditions: second compound 3.16 µM; first compound 1 µM; active means viability on the fitted dose curve at most 10% of control; inactive means the rest;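 note: spheroids exposed to compounds for seven days before readout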
The reply should name one outcome from t (active), f (inactive)

Some entries whose results are on file:
compound	classification
O=c1[nH]cc(F)c(=O)[nH]1 + CN1CCN(c2cc(C(=O)Nc3cc4cc(-c5cnn(C)c5)ccc4cn3)ccn2)CC1	t
CC1(C)CCC(CN2CCN(c3ccc(C(=O)NS(=O)(=O)c4ccc(NCC5CCOCC5)c([N+](=O)[O-])c4)c(Oc4cnc5[nH]ccc5c4)c3)CC2)=C(c2ccc(Cl)cc2)C1 + CN1CCN(c2cc(C(=O)Nc3cc4cc(-c5cnn(C)c5)ccc4cn3)ccn2)CC1	t

Call for entry CC1COCCN1c1cc(C2(S(C)(=N)=O)CC2)nc(-c2ccnc3[nH]ccc23)n1 (stereo not drawn) + CNC(=O)c1ccc(Nc2nc(OC3CCCC3)c3c(-c4ccc5nc(C)oc5c4)c[nH]c3n2)c(OC)c1 :
f

* * *

tested on: 227483-062-R1-J1-PDC complex spheroids with HUVEC/MSC, viability; assay: Anticancer human tumor 227483-062-R1-J1-PDC cell line growth inhibition [CLK]; conditions: second compound 0.316 µM; first compound 0.0949 µM; active means viability on the fitted dose curve at most 10% of control; inactive means the rest;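 note: spheroids exposed to compounds for seven days before readout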
The reply should name one outcome from active, inactive

compound	classification
NC(=O)C(=Cn1cnc(-c2cc(C(F)(F)F)cc(C(F)(F)F)c2)n1)c1cncnc1 + CN1CCN(c2cc(C(=O)Nc3cc4cc(-c5cnn(C)c5)ccc4cn3)ccn2)CC1	active
NC(=O)C(=Cn1cnc(-c2cc(C(F)(F)F)cc(C(F)(F)F)c2)n1)c1cncnc1 + CNC(=O)c1ccc(Nc2nc(OC3CCCC3)c3c(-c4ccc5nc(C)oc5c4)c[nH]c3n2)c(OC)c1	inactive
CC(C)CC(NC(=O)C(Cc1ccccc1)NC(=O)c1cnccn1)B(O)O (stereo unspecified) + CN1CCN(c2cc(C(=O)Nc3cc4cc(-c5cnn(C)c5)ccc4cn3)ccn2)CC1	active

Call for entry C=CC(=O)Nc1cc(Nc2nccc(-c3cn(C)c4ccccc34)n2)c(OC)cc1N(C)CCN(C)C + CNC(=O)c1ccc(Nc2nc(OC3CCCC3)c3c(-c4ccc5nc(C)oc5c4)c[nH]c3n2)c(OC)c1 :
inactive

Call for entry CC(C)CC(NC(=O)C(Cc1ccccc1)NC(=O)c1cnccn1)B(O)O (stereo unspecified) + CNC(=O)c1ccc(Nc2nc(OC3CCCC3)c3c(-c4ccc5nc(C)oc5c4)c[nH]c3n2)c(OC)c1 :
active

Call for entry C=CC(=O)Nc1cc(Nc2nccc(-c3cn(C)c4ccccc34)n2)c(OC)cc1N(C)CCN(C)C + CN1CCN(c2cc(C(=O)Nc3cc4cc(-c5cnn(C)c5)ccc4cn3)ccn2)CC1 :
active

* * *

Tested on: 227483-062-R1-J1-PDC complex spheroids with HUVEC/MSC, viability
Experiment: Anticancer human tumor 227483-062-R1-J1-PDC cell line growth inhibition [CLK]; active means viability on the fitted dose curve at most 10% of control; inactive means the rest;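 note: spheroids exposed to compounds for seven days before readout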
Settings: second compound 3.16 µM; first compound 1 µM
Source text: A high-throughput screen of multi-cell type tumor spheroids was designed to identify active combinations of […] and targeted small molecules. Complex spheroids include a stromal component modeled by human endothelial cells (HUVEC) and fibroblasts modeled by human mesenchymal stem cells (MSCs). […] Compounds. […] If the clinical Cmax for an agent had not been determined, the highest concentration tested was 10 microM. […]
The reply should name one outcome from t (active), f (inactive)

compound	tgt	classification
CC1COCCN1c1cc(C2(S(C)(=N)=O)CC2)nc(-c2ccnc3[nH]ccc23)n1 (configuration not stated) + CN1CCN(c2cc(C(=O)Nc3cc4cc(-c5cnn(C)c5)ccc4cn3)ccn2)CC1	227483-062-R1-J1-PDC complex spheroids with HUVEC/MSC, viability	t
CCCS(=O)(=O)Nc1ccc(F)c(C(=O)c2c[nH]c3ncc(-c4ccc(Cl)cc4)cc23)c1F + CN1CCN(c2cc(C(=O)Nc3cc4cc(-c5cnn(C)c5)ccc4cn3)ccn2)CC1	227483-062-R1-J1-PDC complex spheroids with HUVEC/MSC, viability	t
COc1c(OCCCN2CCOCC2)ccc2c3n(c(=NC(=O)c4cnc(N)nc4)nc12)CCN3 + CNC(=O)c1ccc(Nc2nc(OC3CCCC3)c3c(-c4ccc5nc(C)oc5c4)c[nH]c3n2)c(OC)c1	227483-062-R1-J1-PDC complex spheroids with HUVEC/MSC, viability	f
C#Cc1c(F)ccc2cc(O)cc(-c3ncc4c(N5CC6CCC(C5)N6)nc(OCC56CCCN5CC(F)C6)nc4c3F)c12 (configuration not stated) + CN1CCN(c2cc(C(=O)Nc3cc4cc(-c5cnn(C)c5)ccc4cn3)ccn2)CC1	227483-062-R1-J1-PDC complex spheroids with HUVEC/MSC, viability	t
Nc1ccn(C2OC(CO)C(O)C2(F)F)c(=O)n1 (configuration not stated) + CNC(=O)c1ccc(Nc2nc(OC3CCCC3)c3c(-c4ccc5nc(C)oc5c4)c[nH]c3n2)c(OC)c1	227483-062-R1-J1-PDC complex spheroids with HUVEC/MSC, viability	f
CCN1CCN(Cc2ccc(Nc3ncc(F)c(-c4cc(F)c5nc(C)n(C(C)C)c5c4)n3)nc2)CC1 + CNC(=O)c1ccc(Nc2nc(OC3CCCC3)c3c(-c4ccc5nc(C)oc5c4)c[nH]c3n2)c(OC)c1	227483-062-R1-J1-PDC complex spheroids with HUVEC/MSC, viability	f

Alright, here's another compound for you.
Call for entry CCc1c2c(nc3ccc(O)cc13)-c1cc3c(c(=O)n1C2)COC(=O)[C@]3(O)CC + CN1CCN(c2cc(C(=O)Nc3cc4cc(-c5cnn(C)c5)ccc4cn3)ccn2)CC1 :
t
